System: Blood
EXPERIMENT NOTES: Biodistribution in ddY mouse blood at 0.2 to 0.3 uCi, iv after 30 mins
Format: ADME, organism-based
PARTICULARS: in vivo, 0.5 h
Label fulfilled for high-side Drug uptake (at or above 0.6 % ID/g) and not fulfilled for low-side Drug uptake (below it).

Please review the following examples before continuing.
Nc1ccc(/C=C/C(=O)c2ccc([125I])cc2)cc1: fulfilled
O=C(/C=C/c1ccc(O)cc1)c1ccc([125I])cc1: not fulfilled
COc1ccc(/C=C/C(=O)c2ccc([125I])cc2)cc1: not fulfilled
CN(C)c1ccc(/C=C/C(=O)c2ccc([125I])cc2)cc1: fulfilled

// switching to the query compound
**Query** Does Drug uptake meet or surpass 0.6 % ID/g for "CNc1ccc(/C=C/C(=O)c2ccc([125I])cc2)cc1" ?
**Result** fulfilled
